Reported self-cleavage kobs at 640 uM GlcN6P is given for each of the following variants.
B1: glmS ribozyme (parent)
chain: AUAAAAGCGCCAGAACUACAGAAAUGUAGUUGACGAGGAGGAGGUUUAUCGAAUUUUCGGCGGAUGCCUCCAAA

- Variants of: B1
- Experiment Notes: self-cleavage kobs at 640 uM GlcN6P; higher = faster cleavage; RNA array
- Test Context: with glucosamine-6-phosphate
This sample holds only a part of the variants without activity.
Assay Endpoint: self-cleavage kobs at 640 uM GlcN6P

A39G G40U C58G | < 1e-05 s⁻¹
C34A C58U | < 1e-05 s⁻¹
C34U G35U | < 1e-05 s⁻¹
G7U C10U G43U | < 1e-05 s⁻¹
A6U G44U U55C | < 1e-05 s⁻¹
C50U G63U C68G | 0.000126 s⁻¹
G7C U30G A64G | < 1e-05 s⁻¹
A42U G44U C61G | < 1e-05 s⁻¹
A12C C71G | 0.000264 s⁻¹
G7A G37C A42U | < 1e-05 s⁻¹
A15G A48G | 4.16e-05 s⁻¹
